Source listed as ChEMBL document CHEMBL4689842.

Examples of molecules with documented Population Hoechst High Intensity Objects (%) follow.
System: U2OS
Assay overview: Multiplex assay against U2OS
Type: toxicity, cell-based
Assay context: human, 24 h, 1 µM, compound concentration 1 uM, replicate 1
Parameter: Population Hoechst High Intensity Objects (%)

[
  {
    "Structure notation": "NC(=O)c1cccc(-c2cc(Nc3ccc(OC(F)(F)F)cc3)ncn2)c1",
    "Result unit": "%",
    "Measured": 0
  },
  {
    "Structure notation": "COc1ccc(S(=O)(=O)N(CCO)c2ccccc2CN(C)C/C=C/c2ccc(Cl)cc2)cc1.O=P(O)(O)O",
    "Result unit": "%",
    "Measured": 3
  },
  {
    "Structure notation": "Cl.Oc1ccc2c3c1O[C@H]1c4[nH]c5c(c4C[C@@]4(O)[C@@H](C2)N(CC2CC2)CC[C@]314)C[C@@]1(O)[C@H]2Cc3ccc(O)c4c3[C@@]1(CCN2CC1CC1)[C@H]5O4",
    "Result unit": "%",
    "Measured": 3
  }
]
